Provide the reported SPOT peptide array binding signal intensity of each item.
# experimental_system: CaAbp1-D2
# protocol_description: SPOT peptide array binding signal intensity (averaged, normalized) (arbitrary units (background-subtracted, floor 0; scale differs between SH3 domains)); higher = stronger binding of the SH3 domain to the peptide
Numbers only.

binder | observed
QQNRPLPQLPNRNNR | 6
LPMNIQPDLPPRKIM | 59.5
RKNRAPPQRPRFNRD | 998
GATNNAPTLPKRKNP | 155
HGKRRAPLLLAKLDV | 238

Dear reader, for each entry below, please note its SPOT peptide array binding signal intensity.
1. KDKKTKPTPPPKPSH
2. VPPPMQPPPIESSNL
3. PSRRDSLSIPRAVDA
4. KTKQQKPAIPQKKSF
5. SSTPTTPERPKRKSG
6. KKEKKPPKIPKKVYT

Found:
1: 226; 2: 8; 3: 25; 4: 6440; 5: 1000; 6: 1670
